Molecular target: CYP2D6 (Homo sapiens, UniProt P10635)
Construct: incubated with human liver microsomes; tissue Eurofins ITEMG232; host or cells: human liver microsomes
Sequence (P10635 whole entry): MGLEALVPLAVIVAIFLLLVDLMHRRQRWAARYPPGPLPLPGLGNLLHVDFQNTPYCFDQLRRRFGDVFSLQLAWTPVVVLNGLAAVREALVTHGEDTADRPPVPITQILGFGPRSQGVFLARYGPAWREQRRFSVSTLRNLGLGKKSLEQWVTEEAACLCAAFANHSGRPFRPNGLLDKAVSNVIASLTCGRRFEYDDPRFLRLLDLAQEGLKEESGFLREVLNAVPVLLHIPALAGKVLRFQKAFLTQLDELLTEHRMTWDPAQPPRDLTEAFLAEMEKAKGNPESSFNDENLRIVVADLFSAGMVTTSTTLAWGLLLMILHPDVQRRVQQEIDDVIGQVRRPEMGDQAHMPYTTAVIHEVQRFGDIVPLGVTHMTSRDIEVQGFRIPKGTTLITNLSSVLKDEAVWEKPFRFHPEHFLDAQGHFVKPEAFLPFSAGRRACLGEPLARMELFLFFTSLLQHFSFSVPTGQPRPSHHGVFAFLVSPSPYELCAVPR
Assay: CYP inhibition in human liver microsomes, CYP2D6
Assay type: in vitro ADME
Conditions: probe dextromethorphan, substrate dextromethorphan, read-out: CYP2D6 Inh %

>  <Compound>
Cc1cn(Cc2ccc(-c3cc(CC(C)C)sc3S(=O)(=O)NC(=O)NCc3ccccn3)cc2)c(C)n1 [Example 11]

>  <Target>
CYP2D6 (Homo sapiens, UniProt P10635)

>  <Value unit>
%

>  <inhibition at 10 µM>
44

$$$$
>  <Compound>
Cc1nccn1Cc1ccc(-c2cc(CC(C)C)sc2S(=O)(=O)NC(=O)NCc2ccc(F)c(F)c2)cc1F.O=C(O)C(F)(F)F [Example 34, trifluoroacetic acid]

>  <Target>
CYP2D6 (Homo sapiens, UniProt P10635)

>  <Value unit>
%

>  <inhibition at 10 µM>
40

$$$$
>  <Compound>
CCCNC(=O)NS(=O)(=O)c1sc(CC(C)C)cc1-c1ccc(Cn2ccnc2CC)c(F)c1.O=C(O)C(F)(F)F [Example 33, trifluoroacetic acid]

>  <Target>
CYP2D6 (Homo sapiens, UniProt P10635)

>  <Value unit>
%

>  <inhibition at 10 µM>
18

$$$$
